STUDY_TARGET: Human plasma purified α-thrombin (Homo sapiens)
PROTOCOL_DETAILS: Thrombin cleavage kinetics of quenched fluorescence (QF) peptide substrates, progress curve
Format: biochemical
CONDITION_SET: kcat/KM relative to FpA substrate Lys(Dnp)-DFLAEGGGVRIVGG-Lys(Abz)
Where no end group is shown, it is not given here. The star is where a group is joined. Dnp = O=[N+]([O-])c1ccc(*)c([N+](=O)[O-])c1; 2Abz = Nc1ccccc1C(=O)O
ASSAY_ENDPOINT: Fold-Improved (FpA)

Before answering, review these 6 worked examples.
{"SUBSTANCE": "Osteopontin: QF substrate Lys(Dnp)-X10-X1-IVGG-Lys(Abz), X10-X1 = RGDSVVYGLR (K(Dnp)RGDSVVYGLRIVGGK(Abz))", "Fold-Improved (FpA)": 1.0}
{"SUBSTANCE": "Protein C: QF substrate Lys(Dnp)-X10-X1-IVGG-Lys(Abz), X10-X1 = EDQEDQVDPR (K(Dnp)EDQEDQVDPRIVGGK(2Abz))", "Fold-Improved (FpA)": 4.4}
{"SUBSTANCE": "Factor V (1): QF substrate Lys(Dnp)-X10-X1-IVGG-Lys(Abz), X10-X1 = HTHHAPLSPR (K(Dnp)HTHHAPLSPRIVGGK(Abz))", "Fold-Improved (FpA)": 77.2}
{"SUBSTANCE": "Antithrombin: QF substrate Lys(Dnp)-X10-X1-IVGG-Lys(Abz), X10-X1 = ASTAVVIAGR (K(Dnp)ASTAVVIAGRIVGGK(2Abz))", "Fold-Improved (FpA)": 0.001}
{"SUBSTANCE": "FpB: QF substrate Lys(Dnp)-X10-X1-IVGG-Lys(Abz), X10-X1 = DNEEGFFSAR (K(Dnp)DNEEGFFSARIVGGK(2Abz))", "Fold-Improved (FpA)": 0.7}
{"SUBSTANCE": "TAFI: QF substrate Lys(Dnp)-X10-X1-IVGG-Lys(Abz), X10-X1 = QISNDTVSPR (K(Dnp)QISNDTVSPRIVGGK(Abz))", "Fold-Improved (FpA)": 13.1}

a: PAR 3: QF substrate Lys(Dnp)-X10-X1-IVGG-Lys(Abz), X10-X1 = NLAKPTLPIK (K(Dnp)NLAKPTLPIKIVGGK(2Abz))
b: Thrombin (3): QF substrate Lys(Dnp)-X10-X1-IVGG-Lys(Abz), X10-X1 = EDSDRAIEGR (K(Dnp)EDSDRAIEGRIVGGK(2Abz))
c: PAR 4: QF substrate Lys(Dnp)-X10-X1-IVGG-Lys(Abz), X10-X1 = STPSILPAPR (K(Dnp)STPSILPAPRIVGGK(2Abz))
## Task Highest Fold-Improved (FpA) first, then in falling order down to the smallest. Answer by naming the labels in the order asked.
## Result c, a, b
(c: 23.1, a: 0.04, b: 0.000)
